# test-system: JAK1 (Homo sapiens, UniProt P23458)
# Construct: 5 μl of catalytic domain recombinant Kinase enzyme+Tyr peptide substrate (Invitrogen, CA)
# Sequence (P23458 875-1153 limits assumed): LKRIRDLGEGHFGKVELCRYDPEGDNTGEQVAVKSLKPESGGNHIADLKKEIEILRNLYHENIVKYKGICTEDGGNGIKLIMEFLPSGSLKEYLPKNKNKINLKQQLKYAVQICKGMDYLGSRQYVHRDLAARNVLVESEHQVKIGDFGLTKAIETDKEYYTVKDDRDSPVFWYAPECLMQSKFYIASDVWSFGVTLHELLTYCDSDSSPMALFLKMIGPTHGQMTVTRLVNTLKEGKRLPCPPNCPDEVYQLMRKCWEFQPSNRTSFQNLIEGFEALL
# procedure-summary: Z'-LYTE kinase assay JAK1
pIC50: −log10 of the molar value.
assay-endpoint: pIC50

// returns reported pIC50 for input COC[C@@H](Nc1cc(Nc2ccc(OC)cc2)ncc1C(N)=O)c1ccccc1
< 6.00

Same for CCC(=O)N1CCC(c2ccc(Nc3cc(NCC4CCCCC4)c(C(N)=O)cn3)cc2)CC1
< 6.00

Same for CC(=O)N1CCN(c2ccc(Nc3cc(NCC(C)C)c(C(N)=O)cn3)cc2)CC1
6.00 to 7.00

Same for NC(=O)c1cnc(Nc2ccccc2)cc1NCc1ccccc1
< 6.00

Same for CC(=O)N1CCN(c2ccc(Nc3cc(NCC4CCC4)c(C(N)=O)cn3)cc2)CC1
6.00 to 7.00

Same for NC(=O)c1cnc(Nc2ccc(F)cc2)cc1NCc1cccc2[nH]ccc12
6.00 to 7.00

Same for Cc1cc(Nc2cc(NCc3cccc(F)c3F)c(C(N)=O)cn2)ccc1C(=O)N1CCCC1
6.00 to 7.00

Same for CN(C)C(=O)c1ccc(Nc2cc(NCc3cccc(-n4cccn4)c3)c(C(N)=O)cn2)cc1
< 6.00

====

I'd appreciate it if you could supply IC50 values for the items below.
# test-system: JAK2 (Homo sapiens)
# Construct: 5 μl of catalytic domain recombinant Kinase enzyme+Tyr peptide substrate (Invitrogen, CA)
# procedure-summary: Z'-LYTE kinase assay JAK2

// returns reported IC50 for input CCC(=O)N1CCC(c2ccc(Nc3cc(NCc4cc(F)ccc4F)c(C(N)=O)cn3)cc2)CC1 [Example 149]
10 to 100 nM

Same for CCC(=O)N(C)c1ccc(Nc2cc(NCc3cccc(F)n3)c(C(N)=O)cn2)cc1 [Example 488]
100 to 1000 nM

Same for NC(=O)c1cnc(Nc2ccc(OCCN3CCCC3)cc2)cc1NC1(c2ccccc2)CC1 [Example 132]
100 to 1000 nM

Same for CCC(=O)N1CCC(c2ccc(Nc3cc(NCc4ccccn4)c(C(N)=O)cn3)cc2)CC1 [Example 179]
100 to 1000 nM

Same for CC(=O)N1CCN(c2ccc(Nc3cc(NCc4ccccc4)c(C(N)=O)cn3)cc2C)CC1 [Example 5]
100 to 1000 nM

Same for Cc1cc(Nc2cc(NCc3cccc4ccsc34)c(C(N)=O)cn2)ccc1C(=O)N1CCOCC1 [Example 459]
10 to 100 nM

Same for CCC(=O)N1CCC(c2ccc(Nc3cc(NC4(c5ccccc5)CC4)c(C(N)=O)cn3)cc2)CC1 [Example 375]
> 1000 nM

Same for CN(C(=O)C1CC1)c1ccc(Nc2cc(NCc3cccc4ccsc34)c(C(N)=O)cn2)cc1 [Example 467]
100 to 1000 nM

====

I'd appreciate it if you could supply IC50 values for the items below.
# test-system: JAK2 (Homo sapiens, UniProt O60674)
# Construct: 5 μl of catalytic domain recombinant Kinase enzyme+Tyr peptide substrate (Invitrogen, CA)
# Sequence (O60674 849-1124 limits assumed): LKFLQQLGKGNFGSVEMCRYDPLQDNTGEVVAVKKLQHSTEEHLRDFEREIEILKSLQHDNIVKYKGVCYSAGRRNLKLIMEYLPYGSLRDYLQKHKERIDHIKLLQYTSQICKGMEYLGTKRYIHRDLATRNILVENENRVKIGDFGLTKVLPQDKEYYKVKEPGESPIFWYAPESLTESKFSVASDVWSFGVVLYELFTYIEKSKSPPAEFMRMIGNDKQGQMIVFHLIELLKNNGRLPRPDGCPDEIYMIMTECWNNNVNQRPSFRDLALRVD
# procedure-summary: Z'-LYTE kinase assay JAK2

// returns reported IC50 for input CS(=O)(=O)N1CCC(CNc2cc(Nc3ccc(C4CCOCC4)cc3)ncc2C(N)=O)CC1
> 1 µM

Same for NC(=O)c1cnc(Nc2cccc(OCCN3CCOCC3)c2)cc1NCc1cccc(F)c1
0.1 to 1 µM

Same for NC(=O)c1cnc(Nc2cccc(CN3CCOCC3)c2)cc1NC1(c2ccccc2)CC1
0.1 to 1 µM

Same for Cc1cc(Nc2cc(NCc3ccccc3)c(C(N)=O)cn2)ccc1C(=O)N(C)C
0.01 to 0.1 µM

Same for CN(C)C(=O)N1CCC(Nc2cc(Nc3ccc(C4CCOCC4)cc3)ncc2C(N)=O)CC1
> 1 µM

Same for NC(=O)c1cnc(Nc2ccc(N3CCCCC3=O)cc2)cc1NCc1cc(F)ccc1F
0.01 to 0.1 µM

Same for NC(=O)c1cc(F)c(Nc2cccc(-n3nccn3)c2)nc1NC1CCCC1
> 1 µM

Same for CC(=O)N(C)c1ccc(Nc2cc(NCc3cccc4cc[nH]c34)c(C(N)=O)cn2)cc1
0.1 to 1 µM

====

# test-system: TYK2 (Homo sapiens)
# Construct: 5 μl of catalytic domain recombinant Kinase enzyme+Tyr peptide substrate (Invitrogen, CA)
# procedure-summary: Z'-LYTE kinase assay TYK2
pIC50: −log10 of the molar value.
assay-endpoint: pIC50

// returns reported pIC50 for input COCC(=O)N1CCC(c2ccc(Nc3cc(NCc4ccccc4F)c(C(N)=O)cn3)cc2)CC1 [Example 116]
6.00 to 7.00

Same for CNC(=O)c1cccc(Nc2cc(NCc3ccccc3)c(C(N)=O)cn2)c1 [Example 246]
< 6.00

Same for NC(=O)c1cnc(Nc2ccc(C3CCNCC3)cc2)cc1NCc1cccc(F)c1 [Example 70]
6.00 to 7.00

Same for CCC(=O)N1CCC(c2ccc(Nc3cc(NCc4cccc(F)c4F)c(C(N)=O)cn3)cc2)CC1 [Example 196]
6.00 to 7.00

Same for Cc1cc(Nc2cc(NCc3ccccc3)c(C(N)=O)cn2)ccc1C(=O)N1CCOCC1 [Example 447]
6.00 to 7.00

Same for NC(=O)c1cnc(Nc2ccc(C(=O)N3CCC3)cc2)cc1NCc1c(F)cccc1F [Example 105]
7.00 to 8.00

Same for Cc1ccc(Nc2cc(NCc3ccccc3)c(C(N)=O)cn2)cc1 [Example 10]
< 6.00

Same for CC(=O)N1CCN(c2ccc(Nc3cc(NC4(c5ccccc5)CC4)c(C(N)=O)cn3)cc2)CC1 [Example 126]
< 6.00

====

I'd appreciate it if you could supply IC50 values for the items below.
# test-system: TYK2 (Homo sapiens, UniProt P29597)
# Construct: 5 μl of catalytic domain recombinant Kinase enzyme+Tyr peptide substrate (Invitrogen, CA)
# Sequence (P29597 897-1176 limits assumed): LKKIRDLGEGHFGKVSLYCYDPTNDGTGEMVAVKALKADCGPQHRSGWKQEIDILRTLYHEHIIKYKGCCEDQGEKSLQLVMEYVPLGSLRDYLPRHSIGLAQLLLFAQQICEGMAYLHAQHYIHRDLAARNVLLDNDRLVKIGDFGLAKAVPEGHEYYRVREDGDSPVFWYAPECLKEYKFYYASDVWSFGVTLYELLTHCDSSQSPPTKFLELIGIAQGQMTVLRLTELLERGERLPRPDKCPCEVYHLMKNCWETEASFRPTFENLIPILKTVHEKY
# procedure-summary: Z'-LYTE kinase assay TYK2

# get_value(readout= IC50, system= TYK2 (Homo sapiens, UniProt P29597)) for Cc1cc(Nc2cc(NCc3cccc4[nH]ccc34)c(C(N)=O)cn2)ccc1C(=O)N1CCCC1 [Example 461]
0.001 to 0.01 µM

Same for CC(=O)N1CCN(c2ccc(Nc3cc(NCc4ccc(F)cc4)c(C(N)=O)cn3)cc2)CC1 [Example 252]
> 1 µM

Same for CC(=O)N1CCN(c2ccc(Nc3cc(NCc4cccc(Cl)c4)c(C(N)=O)cn3)cc2)CC1 [Example 257]
0.1 to 1 µM

Same for CN(C)C(=O)c1ccc(Nc2cc(NCc3cc(F)ccc3F)c(C(N)=O)cn2)cc1 [Example 92]
0.1 to 1 µM

====

# test-system: TYK2 (Homo sapiens, UniProt P29597)
# Construct: 5 μl of catalytic domain recombinant Kinase enzyme+Tyr peptide substrate (Invitrogen, CA)
# procedure-summary: Z'-LYTE kinase assay TYK2
assay-endpoint: IC50

# get_value(readout= IC50, system= TYK2 (Homo sapiens, UniProt P29597)) for CNC(=O)[C@@H]1CCCN(c2ccc(Nc3cc(N[C@H](C)c4ccccc4)c(C(N)=O)cn3)cc2)C1 [Example 8]
> 1 µM

Same for CS(=O)(=O)Nc1ccc(Nc2cc(NCc3ccccc3)c(C(N)=O)cn2)cc1 [Example 389]
0.1 to 1 µM

Same for CC(=O)N1CCN(c2ccc(Nc3cc(NC4CC4)c(C(N)=O)cn3)cc2)CC1 [Example 2]
0.1 to 1 µM

Same for NC(=O)c1cnc(Nc2cccc(C(=O)N3CCC3)c2)cc1NCc1ccccc1 [Example 45]
> 1 µM

Same for Cc1cc(Nc2cc(NCc3ccccc3)c(C(N)=O)cn2)ccc1C(=O)N(C)C1CC1 [Example 450]
0.01 to 0.1 µM

Same for CC(=O)N1CCC(c2ccc(Nc3cc(NCc4ccccc4F)c(C(N)=O)cn3)cc2)CC1 [Example 115]
0.1 to 1 µM

Same for CN(C)C(=O)COc1cccc(Nc2cc(NC3(c4ccccc4)CC3)c(C(N)=O)cn2)c1 [Example 365]
> 1 µM

Same for NC(=O)c1cnc(Nc2ccc(OCCN3CCCCC3)cc2)cc1NCc1ccccc1 [Example 81]
> 1 µM

====

I'd appreciate it if you could supply IC50 values for the items below.
# test-system: JAK1 (Homo sapiens, UniProt P23458)
# Construct: 5 μl of catalytic domain recombinant Kinase enzyme+Tyr peptide substrate (Invitrogen, CA); purchased Invitrogen
# procedure-summary: Z'-LYTE kinase assay JAK1
# Type: biochemical

// returns reported IC50 for input CC(=O)Nc1cccc(Nc2nc(NC3CCCC3)c(C(N)=O)cc2F)c1
> 1000 nM

Same for CN(C)C(=O)c1ccc(Nc2cc(NCc3ccncn3)c(C(N)=O)cn2)cc1
> 1000 nM

Same for NC(=O)c1cnc(Nc2ccc3ncccc3c2)cc1NCc1ccccc1
> 1000 nM

Same for COc1ccc(Nc2cc(N[C@H]3CCCN(C(C)=O)C3)c(C(N)=O)cn2)cc1
> 1000 nM

Same for CN(C)C(=O)C1CN(c2ccc(Nc3cc(NCc4ccccc4)c(C(N)=O)cn3)cc2F)C1
100 to 1000 nM

Same for COc1ccc(Nc2cc(NCc3cccc(S(C)(=O)=O)c3)c(C(N)=O)cn2)cc1
> 1000 nM

Same for CC(=O)N1CCN(c2ccc(Nc3cc(NCc4ccccc4F)c(C(N)=O)cn3)cc2)CC1
100 to 1000 nM

Same for CC(=O)N1CCC[C@H](CNc2cc(Nc3ccc(C(=O)N(C)C)c(Cl)c3)ncc2C(N)=O)C1
> 1000 nM

Same for CS(=O)(=O)Cc1ccc(Nc2cc(NCc3cccc4ccsc34)c(C(N)=O)cn2)cc1
10 to 100 nM

Same for CN(C)C(=O)C1CCN(c2ccc(Nc3cc(NCc4cccc5ccsc45)c(C(N)=O)cn3)cc2)CC1
10 to 100 nM

Same for COc1ccc(Nc2cc(NCc3cncc(F)c3)c(C(N)=O)cn2)cc1
100 to 1000 nM

Same for NC(=O)c1cnc(Nc2cccc(OCC(=O)N3CCOCC3)c2)cc1NC1(c2ccccc2)CC1
> 1000 nM

Same for CCC(=O)N1CCC(c2ccc(Nc3cc(N[C@H](C)c4ccccc4)c(C(N)=O)cn3)cc2)CC1
> 1000 nM

Same for CN(C)C(=O)C1CCN(c2ccc(Nc3cc(NCc4cccc5sccc45)c(C(N)=O)cn3)cc2)CC1
100 to 1000 nM

Same for COc1ccc(Nc2cc(NC[C@H]3CCCN(S(C)(=O)=O)C3)c(C(N)=O)cn2)cc1
> 1000 nM

Same for NC(=O)c1cnc(Nc2ccc(OC(F)(F)F)cc2)cc1NCc1cncc(F)c1
> 1000 nM

Same for CCC(=O)N1CCC(c2ccc(Nc3cc(NCc4nccs4)c(C(N)=O)cn3)cc2)CC1
100 to 1000 nM

Same for COc1cccc(Nc2cc(NCc3ccccc3)c(C(N)=O)cn2)c1
> 1000 nM

Same for CNC(=O)Cc1ccc(Nc2cc(NCc3ccccc3)c(C(N)=O)cn2)cc1
100 to 1000 nM

Same for NC(=O)c1cnc(Nc2ccc(N3CCN(c4ccccn4)CC3)cc2)cc1NCc1ccccc1
> 1000 nM

Same for CCC(=O)N1CCC(Nc2cc(Nc3ccc(C4CCOCC4)cc3)ncc2C(N)=O)CC1
> 1000 nM

Same for CN(C)C(=O)c1ccc(Nc2cc(NCc3c(F)cccc3F)c(C(N)=O)cn2)cc1
100 to 1000 nM

Same for COc1ccc(Nc2cc(NCc3ccccc3)c(C(N)=O)cn2)cc1
> 1000 nM

Same for COc1ccc(Nc2cc(NCC3CCCC3)c(C(N)=O)cn2)cc1
> 1000 nM

Same for NC(=O)c1cnc(Nc2ccc(CC(=O)N3CCCC3)cc2)cc1NCc1ccccc1
100 to 1000 nM

Same for CCC(=O)N1CCN(c2ccc(Nc3cc(NC4(c5ccccc5)CC4)c(C(N)=O)cn3)cc2)CC1
> 1000 nM

Same for CC(=O)Nc1cccc(Nc2nc(N[C@H](C)c3ccccc3)c(C(N)=O)cc2F)c1
> 1000 nM

Same for CC(=O)N1CCN(c2ccc(Nc3cc(NC4Cc5ccccc5C4)c(C(N)=O)cn3)cc2)CC1
> 1000 nM

Same for CCC(=O)N1CCC(c2ccc(Nc3cc(NCc4cccc5[nH]ccc45)c(C(N)=O)cn3)cc2)CC1
10 to 100 nM

Same for CC(=O)N1CCC[C@H](CNc2cc(Nc3ccc(C(=O)N4CCCC4)cc3)ncc2C(N)=O)C1
> 1000 nM

Same for COc1ccc(Nc2cc(NCc3cccc4ccn(C)c34)c(C(N)=O)cn2)cc1
> 1000 nM

Same for CS(=O)(=O)NCc1ccc(Nc2cc(NCc3cccc4ccsc34)c(C(N)=O)cn2)cc1
100 to 1000 nM

Same for NC(=O)c1cnc(Nc2ccc(OCCN3CCCC3)cc2)cc1NCc1ccccc1
> 1000 nM
